tested on: 565726-208-R1-J5-PDC complex spheroids, growth inhibition; test: Anticancer human tumor 565726-208-R1-J5-PDC patient-derived pancreatic adenocarcinoma cell line growth inhibition [RAS]; details: second compound 0.000949 µM; first compound 0.316 µM; active compounds read low
Catalogue of viability, T/C values
READOUT_NAME: viability, T/C (%)

MOLECULE	READOUT_NAME	REPORTED_MEASUREMENT
C=CC(=O)Nc1cc(Nc2nccc(-c3cn(C)c4ccccc34)n2)c(OC)cc1N(C)CCN(C)C + CCn1c(-c2cc(N3CCN(C)CC3)cnc2C(C)OC)c2c3cc(ccc31)-c1csc(n1)CC(NC(=O)C1CC1C)C(=O)N1CCCC(N1)C(=O)OCC(C)(C)C2	viability, T/C	44.6
O=C(c1ccc(F)c(F)c1Nc1ccc(I)cc1F)N1CC(O)([C@@H]2CCCCN2)C1 + CCn1c(-c2cc(N3CCN(C)CC3)cnc2C(C)OC)c2c3cc(ccc31)-c1csc(n1)CC(NC(=O)C1CC1C)C(=O)N1CCCC(N1)C(=O)OCC(C)(C)C2	viability, T/C	29.4
Cc1nc(N2CCC3(CC2)COC(C)C3N)c(CO)nc1Sc1ccnc(N)c1Cl (stereo not given) + CCn1c(-c2cc(N3CCN(C)CC3)cnc2C(C)OC)c2c3cc(ccc31)-c1csc(n1)CC(NC(=O)C1CC1C)C(=O)N1CCCC(N1)C(=O)OCC(C)(C)C2	viability, T/C	48.3
C=CC(=O)Nc1cc(Nc2nccc(-c3cn(C)c4ccccc34)n2)c(OC)cc1N(C)CCN(C)C + CCn1c(-c2cccnc2C(C)OC)c2c3cc(ccc31)N1CCOC(CC(NC(=O)C(C(C)C)N(C)C(=O)C3(F)CCN(C(=O)C#CC(C)(C)N(C)C)CC3)C(=O)N3CCCC(N3)C(=O)OCC(C)(C)C2)C1	viability, T/C	78.8
CC(C)NCC(C(=O)N1CCN(c2ncnc3c2C(C)CC3O)CC1)c1ccc(Cl)cc1 (stereo not given) + CCn1c(-c2cc(N3CCN(C)CC3)cnc2C(C)OC)c2c3cc(ccc31)-c1csc(n1)CC(NC(=O)C1CC1C)C(=O)N1CCCC(N1)C(=O)OCC(C)(C)C2	viability, T/C	62.8
CC(C)NCC(C(=O)N1CCN(c2ncnc3c2C(C)CC3O)CC1)c1ccc(Cl)cc1 (stereo not given) + CCn1c(-c2cccnc2C(C)OC)c2c3cc(ccc31)N1CCOC(CC(NC(=O)C(C(C)C)N(C)C(=O)C3(F)CCN(C(=O)C#CC(C)(C)N(C)C)CC3)C(=O)N3CCCC(N3)C(=O)OCC(C)(C)C2)C1	viability, T/C	97.6
C[C@@H](NC(=O)c1ncnc(N)c1Cl)c1ncc(C(=O)Nc2cc(C(F)(F)F)c(Cl)cn2)s1 + CCn1c(-c2cc(N3CCN(C)CC3)cnc2C(C)OC)c2c3cc(ccc31)-c1csc(n1)CC(NC(=O)C1CC1C)C(=O)N1CCCC(N1)C(=O)OCC(C)(C)C2	viability, T/C	76.7
C=CC(=O)N1CCN(c2nc(OCC3CCCN3C)nc3c(F)c(-c4nc(N)cc(C)c4C(F)(F)F)c(Cl)cc23)C(C)C1 (stereo not given) + CCn1c(-c2cccnc2C(C)OC)c2c3cc(ccc31)N1CCOC(CC(NC(=O)C(C(C)C)N(C)C(=O)C3(F)CCN(C(=O)C#CC(C)(C)N(C)C)CC3)C(=O)N3CCCC(N3)C(=O)OCC(C)(C)C2)C1	viability, T/C	97
CC(Nc1ccc2c(c1)OCCn1cc(N3C(=O)OCC3C(F)F)nc1-2)C(N)=O (stereo not given) + CCn1c(-c2cccnc2C(C)OC)c2c3cc(ccc31)N1CCOC(CC(NC(=O)C(C(C)C)N(C)C(=O)C3(F)CCN(C(=O)C#CC(C)(C)N(C)C)CC3)C(=O)N3CCCC(N3)C(=O)OCC(C)(C)C2)C1	viability, T/C	77.3
C=CC(=O)N1CCN(c2nc(OCC3CCCN3C)nc3c(F)c(-c4nc(N)cc(C)c4C(F)(F)F)c(Cl)cc23)C(C)C1 (stereo not given) + CCn1c(-c2cc(N3CCN(C)CC3)cnc2C(C)OC)c2c3cc(ccc31)-c1csc(n1)CC(NC(=O)C1CC1C)C(=O)N1CCCC(N1)C(=O)OCC(C)(C)C2	viability, T/C	62.5
Nc1ccn(C2OC(CO)C(O)C2(F)F)c(=O)n1 (stereo not given) + CCn1c(-c2cc(N3CCN(C)CC3)cnc2C(C)OC)c2c3cc(ccc31)-c1csc(n1)CC(NC(=O)C1CC1C)C(=O)N1CCCC(N1)C(=O)OCC(C)(C)C2	viability, T/C	35
CC(=O)OC12COC1CC(O)C1(C)C(=O)C(O)C3=C(C)C(OC(=O)C(O)C(NC(=O)OC(C)(C)C)c4ccccc4)CC(O)(C(OC(=O)c4ccccc4)C21)C3(C)C (stereo not given) + CCn1c(-c2cccnc2C(C)OC)c2c3cc(ccc31)N1CCOC(CC(NC(=O)C(C(C)C)N(C)C(=O)C3(F)CCN(C(=O)C#CC(C)(C)N(C)C)CC3)C(=O)N3CCCC(N3)C(=O)OCC(C)(C)C2)C1	viability, T/C	15.5
CCN1CCN(Cc2ccc(Nc3ncc(F)c(-c4cc(F)c5nc(C)n(C(C)C)c5c4)n3)nc2)CC1 + CCn1c(-c2cc(N3CCN(C)CC3)cnc2C(C)OC)c2c3cc(ccc31)-c1csc(n1)CC(NC(=O)C1CC1C)C(=O)N1CCCC(N1)C(=O)OCC(C)(C)C2	viability, T/C	35.4
CC1(O)CCCC1n1c(=O)c(C(F)F)cc2cnc(NC3CCN(S(C)(=O)=O)CC3)nc21 (stereo not given) + CCn1c(-c2cc(N3CCN(C)CC3)cnc2C(C)OC)c2c3cc(ccc31)-c1csc(n1)CC(NC(=O)C1CC1C)C(=O)N1CCCC(N1)C(=O)OCC(C)(C)C2	viability, T/C	47.6
O=C(c1ccc(F)c(F)c1Nc1ccc(I)cc1F)N1CC(O)([C@@H]2CCCCN2)C1 + CCn1c(-c2cccnc2C(C)OC)c2c3cc(ccc31)N1CCOC(CC(NC(=O)C(C(C)C)N(C)C(=O)C3(F)CCN(C(=O)C#CC(C)(C)N(C)C)CC3)C(=O)N3CCCC(N3)C(=O)OCC(C)(C)C2)C1	viability, T/C	40

* * *

viability, T/C values by entry
system: 565726-208-R1-J5-PDC complex spheroids, growth inhibition; test: Anticancer human tumor 565726-208-R1-J5-PDC cell line growth inhibition [RAS]; details: second compound 3.16 µM; first compound 0.01 µM; active compounds read low;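 further: spheroids exposed to compounds for seven days before readout; 100% = DMSO vehicle control viability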

COMPOUND	TEST_SYSTEM	viability, T/C (%)
C=CC(=O)N1CCN(c2nc(OCC3CCCN3C)nc3c(F)c(-c4nc(N)cc(C)c4C(F)(F)F)c(Cl)cc23)C(C)C1 (stereo unspecified) + C#Cc1c(F)ccc2cc(O)cc(-c3ncc4c(N5CC6CCC(C5)N6)nc(OCC56CCCN5CC(F)C6)nc4c3F)c12	565726-208-R1-J5-PDC complex spheroids, growth inhibition	88.7
Nc1ccn(C2OC(CO)C(O)C2(F)F)c(=O)n1 (stereo unspecified) + C#Cc1c(F)ccc2cc(O)cc(-c3ncc4c(N5CC6CCC(C5)N6)nc(OCC56CCCN5CC(F)C6)nc4c3F)c12	565726-208-R1-J5-PDC complex spheroids, growth inhibition	99.2
O=C(c1ccc(F)c(F)c1Nc1ccc(I)cc1F)N1CC(O)([C@@H]2CCCCN2)C1 + C#Cc1c(F)ccc2cc(O)cc(-c3ncc4c(N5CC6CCC(C5)N6)nc(OCC56CCCN5CC(F)C6)nc4c3F)c12	565726-208-R1-J5-PDC complex spheroids, growth inhibition	91.7
CCN1CCN(Cc2ccc(Nc3ncc(F)c(-c4cc(F)c5nc(C)n(C(C)C)c5c4)n3)nc2)CC1 + C#Cc1c(F)ccc2cc(O)cc(-c3ncc4c(N5CC6CCC(C5)N6)nc(OCC56CCCN5CC(F)C6)nc4c3F)c12	565726-208-R1-J5-PDC complex spheroids, growth inhibition	105
C=CC(=O)Nc1cc(Nc2nccc(-c3cn(C)c4ccccc34)n2)c(OC)cc1N(C)CCN(C)C + C#Cc1c(F)ccc2cc(O)cc(-c3ncc4c(N5CC6CCC(C5)N6)nc(OCC56CCCN5CC(F)C6)nc4c3F)c12	565726-208-R1-J5-PDC complex spheroids, growth inhibition	85.2
CC(C)n1nc(-c2ccc3oc(N)nc3c2)c2c(N)ncnc21 + C#Cc1c(F)ccc2cc(O)cc(-c3ncc4c(N5CC6CCC(C5)N6)nc(OCC56CCCN5CC(F)C6)nc4c3F)c12	565726-208-R1-J5-PDC complex spheroids, growth inhibition	47.7

* * *

test system: 565726-208-R1-J5-PDC complex spheroids, growth inhibition; test: Anticancer human tumor 565726-208-R1-J5-PDC cell line growth inhibition [RAS]; settings: second compound 0.03 µM; first compound 10 µM; active compounds read low;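 further: spheroids exposed to compounds for seven days before readout; 100% = DMSO vehicle control viability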

COMPOUND	viability, T/C
CCC(CC)c1cc(NC2CCC(N)C2)n2nccc2n1 (configuration not stated) + CCn1c(-c2cccnc2C(C)OC)c2c3cc(ccc31)N1CCOC(CC(NC(=O)C(C(C)C)N(C)C(=O)C3(F)CCN(C(=O)C#CC(C)(C)N(C)C)CC3)C(=O)N3CCCC(N3)C(=O)OCC(C)(C)C2)C1	1.41%
NC1c2ccccc2OC12CCN(c1cnc3c(N4CCCc5ncccc54)n[nH]c3n1)CC2 (configuration not stated) + CCn1c(-c2cccnc2C(C)OC)c2c3cc(ccc31)N1CCOC(CC(NC(=O)C(C(C)C)N(C)C(=O)C3(F)CCN(C(=O)C#CC(C)(C)N(C)C)CC3)C(=O)N3CCCC(N3)C(=O)OCC(C)(C)C2)C1	58.5%
